Data credit: the RNAGym collection of RNA variant scans (doi:10.7554/elife.80360)

B1: Twister Ribozyme (parent)
chain: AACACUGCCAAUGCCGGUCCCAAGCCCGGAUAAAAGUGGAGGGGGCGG

- Variants of: B1
- Test summary: self-cleavage, relative activity (ratio to wild type); higher = more cleavage; co-transcriptional
Outcome measure: self-cleavage

{"Change": "A22U G47A", "Experimental value": 0.582}
{"Change": "C14A U31C", "Experimental value": 0.913}
{"Change": "C21G C27G", "Experimental value": 0.138}
{"Change": "C8G A23U", "Experimental value": 0.103}
{"Change": "U12G C20A", "Experimental value": 0.314}
{"Change": "U12G A35G", "Experimental value": 0.815}
{"Change": "A4C G29C", "Experimental value": 0.0879}
{"Change": "G28U G48C", "Experimental value": 0.921}
{"Change": "A1U G47C", "Experimental value": 0.068}
{"Change": "C14U A32G", "Experimental value": 1.07}
{"Change": "U18A G43U", "Experimental value": 0.125}
{"Change": "G13U C20A", "Experimental value": 0.0934}
{"Change": "G16A G48U", "Experimental value": 0.917}
{"Change": "A2U A34U", "Experimental value": 0.189}
{"Change": "G13U A34U", "Experimental value": 0.199}
{"Change": "A2G G17U", "Experimental value": 0.0694}
{"Change": "C15U G43U", "Experimental value": 0.277}
{"Change": "G16U G36U", "Experimental value": 0.124}
{"Change": "A33G A35U", "Experimental value": 0.789}
{"Change": "G13A A30C", "Experimental value": 0.771}
{"Change": "C15U A30U", "Experimental value": 0.925}
{"Change": "A4U C5G", "Experimental value": 0.0771}
